- Read-out: E-selectin (Homo sapiens)
- assay.notes: BSK_3C_Eselectin: BioMAP Diversity Plus: 3C Assay for Eselectin Biomarker Activity (AID 2283015)
- condition.info: primary human endothelial cells (HUVEC); actives raise or lower the signal
Activity calls are given as the source filed them. The calls were made as follows: active = hit-call score of the fitted dose curve at least 0.9, where 1 is the maximum; inactive = score below 0.9.
Pick one and only one: active, inactive

Some solved cases for reference:
OCC(F)(F)OC(F)(F)C(F)(F)OC(F)(F)CO
inactive
ClC1=C(Cl)C2(Cl)C3C(Cl)C(Cl)CC3C1(Cl)C2(Cl)Cl (configuration not stated)
active
ClC(Cl)=C(c1ccc(Cl)cc1)c1ccccc1Cl
active
c1nc[nH]n1
inactive
O=P(Oc1ccccc1)(Oc1ccccc1)Oc1ccccc1
inactive
CCOP(=S)(NC(C)C)Oc1ccccc1C(=O)OC(C)C (configuration not stated)
active
NC(=O)C(F)(F)C(F)(F)F
inactive
CCCCCCCc1ccc(O)cc1
active

Moving on to another molecule below.
Inquiry: Outcome logged for CC(O)C(F)(F)C(F)(F)F (configuration not stated) in this assay:
Reply text: inactive
